Target Or Test System: 5-hydroxytryptamine receptor 2B (Homo sapiens); also: assay procedure not described here
Sequence (P41595 whole entry): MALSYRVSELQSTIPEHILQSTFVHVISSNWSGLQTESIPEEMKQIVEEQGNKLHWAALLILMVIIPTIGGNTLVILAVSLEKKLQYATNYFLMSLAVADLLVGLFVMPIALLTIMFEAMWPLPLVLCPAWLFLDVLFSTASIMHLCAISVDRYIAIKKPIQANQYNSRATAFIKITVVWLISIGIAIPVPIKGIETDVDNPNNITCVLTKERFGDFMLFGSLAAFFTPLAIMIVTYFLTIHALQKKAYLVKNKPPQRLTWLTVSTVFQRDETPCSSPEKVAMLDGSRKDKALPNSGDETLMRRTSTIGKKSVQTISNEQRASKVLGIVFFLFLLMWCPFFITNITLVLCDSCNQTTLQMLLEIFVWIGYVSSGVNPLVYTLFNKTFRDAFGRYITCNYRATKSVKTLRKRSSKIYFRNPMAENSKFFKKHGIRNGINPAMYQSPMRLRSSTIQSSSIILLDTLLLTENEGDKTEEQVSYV
Type: functional, cell-based
Overview of reported AC50 across a group of compounds:

Worked cases, answers included:
CC(=O)Nc1ccc(CC(=O)O)cc1	> 30 µM
CCOC(=O)c1ccc(C#Cc2ccc3c(c2)C(C)(C)CCS3)nc1	> 10 µM
CN(Cc1cnc2nc(N)nc(N)c2n1)c1ccc(C(=O)N[C@@H](CCC(=O)O)C(=O)O)cc1 [METHOTREXATE]	> 10 µM

Now look at this entry.
Lookup: Tell me its AC50 given COc1cc2[nH]c(C)c(CCN3CCN(c4ccccc4)CC3)c2cc1OC as the entry.
Found: > 30 µM
